# Test system: Drosophila melanogaster
# Experimental details: olfactory response index (dipstick assay) (fraction of flies (RI; 1 aversion, 0.5 indifferent, 0 attraction)); higher = stronger aversion to the odorant
# Condition label: genotype (tubulin-GAL4 x UAS-RNAi line; control = progenitor): obp 56c; odorant concentration: 1% v/v; female
So I've got a bunch of molecules here, and I need their olfactory response index values.
Give bare numbers.

- Molecule: "CC(=O)c1ccccc1 [acetophenone]"
  olfactory response index: 0.602
- Molecule: "CCCCCC(C)=O [2-heptanone]"
  olfactory response index: 0.494
- Molecule: "CCOC(C)=O [ethyl acetate]"
  olfactory response index: 0.3
- Molecule: "CC(C)=CCCC(C)=CC=O (mixture of isomers) [citral]"
  olfactory response index: 0.606

For the molecule COC(=O)c1ccccc1O [methyl salicylate] , give its reported olfactory response index.
0.27

====

# Test system: Drosophila melanogaster
# Experimental details: olfactory response index (dipstick assay) (fraction of flies (RI; 1 aversion, 0.5 indifferent, 0 attraction)); higher = stronger aversion to the odorant
# Condition label: genotype (tubulin-GAL4 x UAS-RNAi line; control = progenitor): obp 57b; odorant concentration: 1% v/v; male
olfactory response index of 0.3 or higher: Y. Under 0.3: N.

A selection of reference data follows.
- Compound: "COC(=O)c1ccccc1O [methyl salicylate]"
  Discrete label: "N"
- Compound: "CC(=O)c1ccccc1 [acetophenone]"
  Discrete label: "Y"
- Compound: "C=C(C)[C@H]1CC=C(C)C(=O)C1 [(S)-carvone]"
  Discrete label: "Y"
- Compound: "C=C(C)[C@@H]1CC=C(C)C(=O)C1 [(R)-carvone]"
  Discrete label: "Y"
- Compound: "CCC/C=C/C=O [(E)-2-hexenal]"
  Discrete label: "Y"

Hello, I need to know if CC(=O)OCCC(C)C [isoamyl acetate] has measured olfactory response index not below 0.3. Thanks!
N

Exam item: decide whether the reported olfactory response index for Cc1cnccn1 [2-methylpyrazine] is at least 0.3.
N

====

# Tested on: Drosophila melanogaster
# Experimental details: olfactory response index (dipstick assay) (fraction of flies (RI; 1 aversion, 0.5 indifferent, 0 attraction)); higher = stronger aversion to the odorant
# Condition label: genotype (tubulin-GAL4 x UAS-RNAi line; control = progenitor): obp 56a; odorant concentration: 1% v/v; male
Recorded metric: olfactory response index
One number for each entry.

Check out these entries, answers already filled in.
- Compound: "CCC=O [propanal]"
  Test value: 0.111
- Compound: "Cc1cnccn1 [2-methylpyrazine]"
  Test value: 0.176

# per-item lookup of olfactory response index; items listed below
1. CCC/C=C/C=O [(E)-2-hexenal]
2. CC(=O)c1ccccc1 [acetophenone]

1: 0.763; 2: 0.275

For the 2 compounds below, give their olfactory response index values.
1. C=C(C)[C@H]1CC=C(C)C(=O)C1 [(S)-carvone]
2. CCc1cnccn1 [2-ethylpyrazine]

1: 0.142; 2: 0.194

====

# Tested on: Drosophila melanogaster
# Experimental details: olfactory response index (dipstick assay) (fraction of flies (RI; 1 aversion, 0.5 indifferent, 0 attraction)); higher = stronger aversion to the odorant
# Condition label: genotype (tubulin-GAL4 x UAS-RNAi line; control = progenitor): control; odorant concentration: 1% v/v; female
Recorded metric: olfactory response index
Numbers only.

Answered examples (8):
- Compound: "CCCCCC(C)=O [2-heptanone]"
  olfactory response index: 0.483
- Compound: "OCCc1ccccc1 [2-phenylethanol]"
  olfactory response index: 0.5
- Compound: "Cc1cnccn1 [2-methylpyrazine]"
  olfactory response index: 0.415
- Compound: "C=C(C)[C@H]1CC=C(C)C(=O)C1 [(S)-carvone]"
  olfactory response index: 0.65
- Compound: "C=C(C)[C@@H]1CC=C(C)C(=O)C1 [(R)-carvone]"
  olfactory response index: 0.712
- Compound: "CCC=O [propanal]"
  olfactory response index: 0.467
- Compound: "CCc1cnccn1 [2-ethylpyrazine]"
  olfactory response index: 0.524
- Compound: "CCC/C=C/C=O [(E)-2-hexenal]"
  olfactory response index: 0.804

Parameters: items (list). Returns: olfactory response index for each item.
1. COC(=O)c1ccccc1O [methyl salicylate]
2. CC(=O)OCCC(C)C [isoamyl acetate]

[0.558, 0.707]

====

For each of the compounds below, state its olfactory response index.
# Tested on: Drosophila melanogaster
# Experimental details: olfactory response index (dipstick assay) (fraction of flies (RI; 1 aversion, 0.5 indifferent, 0 attraction)); higher = stronger aversion to the odorant
# Condition label: genotype (tubulin-GAL4 x UAS-RNAi line; control = progenitor): obp 28a; odorant concentration: 1% v/v; male
Answers are plain numbers.

These recorded examples may help you get a feel for the data.
- Compound: "CC(=O)OCCC(C)C [isoamyl acetate]"
  olfactory response index: 0.237
- Compound: "CCC/C=C/C=O [(E)-2-hexenal]"
  olfactory response index: 0.672
- Compound: "CCc1cnccn1"
  olfactory response index: 0.472

Go through the list and state olfactory response index for each entry.
1. C=C(C)[C@@H]1CC=C(C)C(=O)C1 [(R)-carvone]
2. CC(C)=CCC/C(C)=C/CO
3. C=C(C)[C@H]1CC=C(C)C(=O)C1 [(S)-carvone]
4. COC(=O)c1ccccc1O [methyl salicylate]
5. CCOC(C)=O [ethyl acetate]

1: 0.499; 2: 0.177; 3: 0.384; 4: 0.249; 5: 0.311

====

# Test system: Drosophila melanogaster
# Experimental details: olfactory response index (dipstick assay) (fraction of flies (RI; 1 aversion, 0.5 indifferent, 0 attraction)); higher = stronger aversion to the odorant
# Condition label: genotype (tubulin-GAL4 x UAS-RNAi line; control = progenitor): obp 83a; odorant concentration: 1% v/v; female
Recorded metric: olfactory response index
One number for each entry.

Below: 5 compounds and their reported olfactory response index.
- Compound: "COC(=O)c1ccccc1O [methyl salicylate]"
  Test value: 0.454
- Compound: "C=C(C)[C@H]1CC=C(C)C(=O)C1 [(S)-carvone]"
  Test value: 0.589
- Compound: "CC(=O)c1ccccc1 [acetophenone]"
  Test value: 0.45
- Compound: "CCC=O [propanal]"
  Test value: 0.312
- Compound: "CCc1cnccn1 [2-ethylpyrazine]"
  Test value: 0.567

Please go through the list and note olfactory response index for each compound.
1. CCC/C=C/C=O [(E)-2-hexenal]
2. CC(=O)OCCC(C)C [isoamyl acetate]
3. CCOC(C)=O [ethyl acetate]

0.779
0.594
0.471

====

# System: Drosophila melanogaster
# Experimental details: olfactory response index (dipstick assay) (fraction of flies (RI; 1 aversion, 0.5 indifferent, 0 attraction)); higher = stronger aversion to the odorant
# Condition label: genotype (tubulin-GAL4 x UAS-RNAi line; control = progenitor): obp 83c; odorant concentration: 1% v/v; male
Recorded metric: olfactory response index
One number for each entry.

In the examples that follow, each entry is paired with its recorded olfactory response index.
- Compound: "C=C(C)[C@H]1CC=C(C)C(=O)C1 [(S)-carvone]"
  Target: "Drosophila melanogaster"
  olfactory response index: 0.555
- Compound: "CC(C)=CCCC(C)=CC=O (mixture of isomers)"
  Target: "Drosophila melanogaster"
  olfactory response index: 0.292
- Compound: "CCC=O"
  Target: "Drosophila melanogaster"
  olfactory response index: 0.238
- Compound: "CC(C)=CCC/C(C)=C/CO"
  Target: "Drosophila melanogaster"
  olfactory response index: 0.183
- Compound: "CCOC(C)=O [ethyl acetate]"
  Target: "Drosophila melanogaster"
  olfactory response index: 0.255
- Compound: "Cc1cnccn1"
  Target: "Drosophila melanogaster"
  olfactory response index: 0.218
- Compound: "CC(=O)OCCC(C)C [isoamyl acetate]"
  Target: "Drosophila melanogaster"
  olfactory response index: 0.321

Okay, now this compound:
# return recorded olfactory response index for input OCCc1ccccc1
0.127

====

Would you mind telling me the reported olfactory response index of each entry?
# System: Drosophila melanogaster
# Experimental details: olfactory response index (dipstick assay) (fraction of flies (RI; 1 aversion, 0.5 indifferent, 0 attraction)); higher = stronger aversion to the odorant
# Condition label: genotype (tubulin-GAL4 x UAS-RNAi line; control = progenitor): obp 59a; odorant concentration: 1% v/v; male
Answers are plain numbers.

Worked cases, answers included:
- Compound: "CCc1cnccn1"
  olfactory response index: 0.385
- Compound: "Cc1cnccn1"
  olfactory response index: 0.397
- Compound: "CCOC(C)=O [ethyl acetate]"
  olfactory response index: 0.324
- Compound: "CC(C)=CCC/C(C)=C/CO"
  olfactory response index: 0.441

Quick request: olfactory response index for each listed item, please.
1. CCC=O
2. COC(=O)c1ccccc1O [methyl salicylate]
3. CCCCCC(C)=O
4. CC(=O)c1ccccc1

[0.498, 0.368, 0.444, 0.533]

====

# Test system: Drosophila melanogaster
# Experimental details: olfactory response index (dipstick assay) (fraction of flies (RI; 1 aversion, 0.5 indifferent, 0 attraction)); higher = stronger aversion to the odorant
# Condition label: genotype (tubulin-GAL4 x UAS-RNAi line; control = progenitor): obp 99b; odorant concentration: 1% v/v; male
For each of the compounds below, state its olfactory response index.

Kindly give each listed record's olfactory response index.
1. Cc1cnccn1
2. CCc1cnccn1
3. CCCCCC(C)=O
4. CC(=O)OCCC(C)C [isoamyl acetate]
5. C=C(C)[C@H]1CC=C(C)C(=O)C1 [(S)-carvone]
6. CCC/C=C/C=O [(E)-2-hexenal]
7. CC(C)=CCC/C(C)=C/CO
8. CCOC(C)=O [ethyl acetate]

[0.1, 0.146, 0.138, 0.23, 0.171, 0.29, 0.141, 0.15]

Write olfactory response index of COC(=O)c1ccccc1O [methyl salicylate] ; system used: Drosophila melanogaster
0.108
